Reference source: patent US20220411491A1

# target.under.test: human GPRC5D (human, UniProt Q9NZD1 1-345)
# Sequence (Q9NZD1 whole entry): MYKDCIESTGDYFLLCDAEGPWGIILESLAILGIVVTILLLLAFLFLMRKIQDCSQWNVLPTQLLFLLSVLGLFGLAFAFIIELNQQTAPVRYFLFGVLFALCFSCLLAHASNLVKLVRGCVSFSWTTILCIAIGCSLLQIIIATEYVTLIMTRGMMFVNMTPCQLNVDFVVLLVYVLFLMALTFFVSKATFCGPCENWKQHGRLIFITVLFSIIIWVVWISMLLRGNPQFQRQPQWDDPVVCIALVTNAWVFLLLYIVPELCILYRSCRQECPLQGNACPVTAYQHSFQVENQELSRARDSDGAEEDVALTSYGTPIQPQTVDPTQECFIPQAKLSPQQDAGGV
# assay.overview: cell-based or functional assay
# Lookup of reported CAR-J2 EC50 keyed by entry
Give the quantity in ng/mL, number only.

These recorded examples may help you get a feel for the data.
[
  {
    "binder": "P1AE5720 (antibody, V domains shown) VH: EVQLLESGGGLVQPGGSLRLSCAASGFTFSKYAMAWVRQAPGKGLEWVASISTGGVNTYYADSVKGRFTISRDNSKNTLYLQMNSLRAEDTAVYYCATHTGDYFDYWGQGTMVTVSS VL: DIVMTQSPDSLAVSLGERATINCRASQSVSISGINLMNWYQQKPGQQPKLLIYHASILASGVPDRFSGSGSGTDFTLTISSLQAEDVAVYYCQQTRESPLTFGQGTRLEIK",
    "CAR-J2 EC50 / ng/mL": 6.3
  },
  {
    "binder": "P1AE5730 (antibody, V domains shown) VH: ELQLLESGGGLVQPGGSLRLSCAASGFTFSKYAMAWVRQAPGKGLEWVASISTGGVNTYYADSVKGRFTISRDNAKNTLYLQMNSLRAEDTAVYYCATHTGDYFDYWGQGTMVTVSS VL: DIQMTQSPSSLSASVGDRVTITCRASQSVSISGINLMNWYQQKPGKQPKLLIYHASILASGVPSRFSGSGSGTDFTLTISSLQPEDFATYYCQQTRESPLTFGQGTRLEIK",
    "CAR-J2 EC50 / ng/mL": 3.5
  }
]

Next binder, CAR-J2 EC50 to be filled in.
Prompt: Complete the entry with CAR-J2 EC50 for P1AE5722 (antibody, V domains shown) VH: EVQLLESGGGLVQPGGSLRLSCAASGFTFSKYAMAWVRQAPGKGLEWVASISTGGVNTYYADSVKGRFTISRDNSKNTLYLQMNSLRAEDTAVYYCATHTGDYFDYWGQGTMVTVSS VL: EIVLTQSPGTLSLSPGERATLSCRASQSVSISGINLMNWYQQKPGQQPRLLIYHASILASGIPDRFSGSGSGTDFTLTISRLEPEDFAVYYCQQTRESPLTFGQGTRLEIK
Response: 4.6
